Target: BMX (Homo sapiens)
Construct: ICE Bioscience Inc. (assay service)
Sequence (P51813 whole entry): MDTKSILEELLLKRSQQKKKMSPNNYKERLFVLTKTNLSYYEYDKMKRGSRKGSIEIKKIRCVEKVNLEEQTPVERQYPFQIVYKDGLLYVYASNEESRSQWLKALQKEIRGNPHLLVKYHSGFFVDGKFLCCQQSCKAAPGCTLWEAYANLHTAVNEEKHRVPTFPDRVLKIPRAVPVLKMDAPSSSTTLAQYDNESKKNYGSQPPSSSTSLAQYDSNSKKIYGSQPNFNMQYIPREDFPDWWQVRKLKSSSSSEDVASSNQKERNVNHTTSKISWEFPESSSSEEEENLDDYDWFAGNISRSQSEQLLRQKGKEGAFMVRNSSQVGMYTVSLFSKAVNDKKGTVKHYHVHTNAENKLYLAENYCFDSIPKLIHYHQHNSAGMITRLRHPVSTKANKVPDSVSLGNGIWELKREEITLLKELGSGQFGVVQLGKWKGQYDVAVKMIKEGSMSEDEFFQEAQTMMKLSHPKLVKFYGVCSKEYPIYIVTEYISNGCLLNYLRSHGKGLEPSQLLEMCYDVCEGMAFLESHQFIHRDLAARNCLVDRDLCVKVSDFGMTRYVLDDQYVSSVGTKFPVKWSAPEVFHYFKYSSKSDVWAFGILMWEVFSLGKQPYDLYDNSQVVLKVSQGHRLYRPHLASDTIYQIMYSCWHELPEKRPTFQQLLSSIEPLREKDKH
Experiment: In vitro selectivity assay
Assay type: biochemical
Conditions: selectivity panel
Experimental: The inhibitory effects of compound MPH-5 on a panel of 68 kinases and other histone deacetylases were evaluated to assess the selectivity profile of MPH-5. This experiment was conducted by ICE Bioscience Inc. (Beijing, China).
measuredMetric: IC50

Input line: Query IC50 on BMX (Homo sapiens) for Cn1cc(-c2cc3cnc(Nc4ccc(-c5cncn5/C=C/C(=O)NO)cc4Cl)cc3n2C(=O)OC(C)(C)C)cn1
Output line: > 10 µM

---

target: ZAP70 (Homo sapiens); assay: In vitro selectivity assay; assay type: biochemical; details: selectivity panel
Sequence (P43403 whole entry): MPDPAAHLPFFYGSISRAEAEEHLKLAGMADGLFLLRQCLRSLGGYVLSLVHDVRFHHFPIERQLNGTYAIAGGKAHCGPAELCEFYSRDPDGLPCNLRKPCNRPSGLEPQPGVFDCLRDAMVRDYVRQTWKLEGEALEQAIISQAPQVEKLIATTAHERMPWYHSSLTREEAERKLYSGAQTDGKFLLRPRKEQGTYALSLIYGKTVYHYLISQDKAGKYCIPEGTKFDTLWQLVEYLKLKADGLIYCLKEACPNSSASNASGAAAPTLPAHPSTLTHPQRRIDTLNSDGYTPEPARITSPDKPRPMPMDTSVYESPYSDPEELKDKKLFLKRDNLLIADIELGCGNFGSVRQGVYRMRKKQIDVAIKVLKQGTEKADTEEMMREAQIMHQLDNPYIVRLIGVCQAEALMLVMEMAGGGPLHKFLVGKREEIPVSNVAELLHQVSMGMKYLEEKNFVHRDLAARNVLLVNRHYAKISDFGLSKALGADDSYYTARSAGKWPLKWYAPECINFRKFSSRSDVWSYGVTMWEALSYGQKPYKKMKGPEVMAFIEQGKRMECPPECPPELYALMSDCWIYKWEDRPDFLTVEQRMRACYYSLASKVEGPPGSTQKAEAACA
measuredMetric: IC50

Input line: Which IC50 value is on record for Cn1cc(-c2cc3cnc(Nc4ccc(-c5cncn5/C=C/C(=O)NO)cc4Cl)cc3n2C(=O)OC(C)(C)C)cn1 ?
Output line: > 10 µM

---

assay: In vivo pharmacokinetic study; details: mouse, plasma, ip; BALB/c mice, i.p., 5 mg/kg; read-out: AUC (h·nmol/L), area under the drug-time curve
measuredMetric: AUC

Input line: # get_value(readout='AUC', item= Cn1cc(-c2cc3cnc(Nc4ccc(-c5cncn5/C=C/C(=O)NO)cc4Cl)cc3n2C(=O)OC(C)(C)C)cn1 )
Output line: 13800 nmol·h/L

---

Target: MPS1 (Homo sapiens)
Sequence (P33981 1-857): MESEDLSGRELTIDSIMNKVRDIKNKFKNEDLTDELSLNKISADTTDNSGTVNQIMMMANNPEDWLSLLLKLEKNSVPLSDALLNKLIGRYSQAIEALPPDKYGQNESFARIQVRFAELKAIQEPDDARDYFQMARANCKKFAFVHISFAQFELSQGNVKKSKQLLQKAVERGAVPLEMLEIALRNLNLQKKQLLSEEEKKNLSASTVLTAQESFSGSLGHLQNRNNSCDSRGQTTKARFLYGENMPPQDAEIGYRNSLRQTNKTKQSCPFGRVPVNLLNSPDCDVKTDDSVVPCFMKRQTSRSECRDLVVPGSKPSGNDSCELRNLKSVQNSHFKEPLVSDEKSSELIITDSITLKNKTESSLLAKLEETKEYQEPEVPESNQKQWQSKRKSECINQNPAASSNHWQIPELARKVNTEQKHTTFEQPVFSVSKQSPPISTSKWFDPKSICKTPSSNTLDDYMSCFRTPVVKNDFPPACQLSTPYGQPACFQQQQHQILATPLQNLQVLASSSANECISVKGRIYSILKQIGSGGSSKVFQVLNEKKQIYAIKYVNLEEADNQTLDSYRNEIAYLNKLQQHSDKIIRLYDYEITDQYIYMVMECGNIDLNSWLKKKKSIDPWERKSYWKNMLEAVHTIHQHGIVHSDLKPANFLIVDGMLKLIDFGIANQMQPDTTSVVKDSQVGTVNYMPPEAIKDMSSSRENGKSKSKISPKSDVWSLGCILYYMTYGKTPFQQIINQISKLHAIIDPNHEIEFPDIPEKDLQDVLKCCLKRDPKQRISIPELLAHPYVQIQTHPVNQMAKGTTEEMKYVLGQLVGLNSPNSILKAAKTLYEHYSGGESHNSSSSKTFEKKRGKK
measuredMetric: IC50 (nM)
Give the value in nM but do not write nM after it.

Input line: Item under review: Cn1cc(-c2cc3cnc(Nc4ccc(-c5cncn5/C=C/C(=O)NO)cc4Cl)cc3n2C(=O)OC(C)(C)C)cn1 [MPH-5] . Reported IC50?
Output line: 4.52

Input line: Fill in the blank: the reported IC50 of COc1cc(-c2cnc(C)n2/C=C/C(=O)NO)ccc1Nc1cc2c(cn1)cc(C1C=CN=C1)n2C(=O)OC(F)(F)F (stereo not drawn) [MPH-4] is ____.
Output line: 11.7

Input line: Given the compound COc1cc(-c2cncn2/C=C/C(=O)NO)ccc1Nc1cc2c(cn1)cc(C1C=CN=C1)n2C(=O)OC(C)(C)C (stereo not drawn) [MPH-2] , what is its reported IC50?
Output line: 7.6

Input line: Requested read-out: IC50. Entry: Cc1ncc(-c2ccc(Nc3cc4c(cn3)cc(C3C=NC(C(F)(F)F)=C3)n4C(=O)OC(C)(C)C)cc2)n1/C=C/C(=O)NO (stereo not drawn) [MPH-3]
Output line: 13.2

Input line: Would you mind telling me what IC50 value was observed for CC1=CC(c2cc3cnc(Nc4ccc(-c5cccc[n+]5/C=C/C(=O)NO)cc4Cl)cc3n2C(=O)OC(F)(F)F)C=N1 (stereo not drawn) [MPH-1] ?
Output line: 9.38

Input line: Fill in: IC50 of CC(C)(C)OC(=O)n1c(-c2cn[nH]c2C(F)F)cc2cnc(Nc3ccc(-c4cnc(C(F)(F)F)n4/C=C/C(=O)NO)cc3Cl)cc21 [MPH-6] is ___
Output line: 10.8
